Where do the numbers come from? From ChEMBL document CHEMBL2417369.

ASSAY TARGET: MAP kinase-activated protein kinase 5 (Homo sapiens)
MEASUREMENT DESCRIPTION: Inhibition of MAPKAPK5 (unknown origin) at 30 uM by microfluidic mobility shift assay relative to control
Entry flag: True if inhibition reaches 30%; False if it does not.

MOLECULE: c1ccc(CC2CCNC3(CCN(c4ncnc5[nH]cnc45)CC3)C2)cc1 (racemic)
GROUP LABEL: False

MOLECULE: c1nc(N2CCC3(CCCN3)CC2)c2nc[nH]c2n1
GROUP LABEL: False

MOLECULE: O=S(=O)(c1cccc2cnccc12)N1CCC2(CCCNC2)CC1
GROUP LABEL: False

Asked: Test whether the molecule O=C(O)C1CCC2(CCN(c3ncnc4[nH]cnc34)CC2)NC1 (racemic) records inhibition of 30% or higher.
Given back: False

Asked: Test whether the molecule O=S(=O)(c1cccc2cnccc12)N1CCC2(CCC(O)CN2)CC1 (racemic) records inhibition of 30% or higher.
Given back: True

Asked: Test whether the molecule `c1nc(N2CCCC23CCNCC3)c2nc[nH]c2n1` records inhibition of 30% or higher.
Given back: False

----------
ASSAY TARGET: Tyrosine-protein kinase ABL1 (Homo sapiens, UniProt P00519)
Sequence (P00519 whole entry): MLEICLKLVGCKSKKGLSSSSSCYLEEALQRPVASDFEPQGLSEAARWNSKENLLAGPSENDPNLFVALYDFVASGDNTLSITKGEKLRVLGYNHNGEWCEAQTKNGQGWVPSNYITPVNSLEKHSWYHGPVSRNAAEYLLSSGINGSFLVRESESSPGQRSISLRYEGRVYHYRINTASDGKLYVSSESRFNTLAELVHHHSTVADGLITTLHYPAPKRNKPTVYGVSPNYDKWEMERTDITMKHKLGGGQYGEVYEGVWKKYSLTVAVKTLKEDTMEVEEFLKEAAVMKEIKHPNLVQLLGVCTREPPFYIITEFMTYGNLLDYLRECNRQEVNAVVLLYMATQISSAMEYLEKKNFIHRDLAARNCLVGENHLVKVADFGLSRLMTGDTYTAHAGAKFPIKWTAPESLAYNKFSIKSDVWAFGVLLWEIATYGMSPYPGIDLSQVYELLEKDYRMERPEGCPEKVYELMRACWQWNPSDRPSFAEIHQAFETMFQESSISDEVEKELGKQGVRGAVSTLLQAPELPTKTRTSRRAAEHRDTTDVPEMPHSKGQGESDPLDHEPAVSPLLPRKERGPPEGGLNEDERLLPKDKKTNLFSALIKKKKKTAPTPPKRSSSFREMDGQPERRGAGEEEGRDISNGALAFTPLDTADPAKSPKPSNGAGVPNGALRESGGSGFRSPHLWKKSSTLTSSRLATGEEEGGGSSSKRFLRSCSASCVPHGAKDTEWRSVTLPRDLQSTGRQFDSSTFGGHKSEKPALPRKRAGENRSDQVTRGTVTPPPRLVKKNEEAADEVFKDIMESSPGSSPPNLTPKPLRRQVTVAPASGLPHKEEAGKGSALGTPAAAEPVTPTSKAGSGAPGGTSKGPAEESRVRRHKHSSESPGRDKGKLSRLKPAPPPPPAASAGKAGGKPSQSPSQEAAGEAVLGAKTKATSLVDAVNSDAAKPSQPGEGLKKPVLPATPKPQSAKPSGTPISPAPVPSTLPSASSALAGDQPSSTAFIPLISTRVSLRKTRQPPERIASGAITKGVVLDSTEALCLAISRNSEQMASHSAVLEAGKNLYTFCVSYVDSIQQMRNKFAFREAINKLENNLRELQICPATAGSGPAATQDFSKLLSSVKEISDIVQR
MEASUREMENT DESCRIPTION: Inhibition of ABL (unknown origin) at 30 uM by microfluidic mobility shift assay relative to control
VALUE TYPE: inhibition (%)
State the answer as a number, implicitly in %.

MOLECULE: OC1CCNC2(CCN(c3ncnc4[nH]cnc34)CC2)C1 (racemic)
inhibition [%]: 23
//
MOLECULE: c1nc(N2CCC3(CCCN3)CC2)c2nc[nH]c2n1
inhibition [%]: 26
//
MOLECULE: CN(C)C(=O)C1CCC2(CCN(c3ncnc4[nH]cnc34)CC2)NC1 (racemic)
inhibition [%]: 17
//
MOLECULE: O=S(=O)(c1cccc2cnccc12)N1CCC2(CCCCN2)CC1
inhibition [%]: 12
//
MOLECULE: O=S(=O)(c1cccc2cnccc12)N1CCCC2(CCNCC2)C1
inhibition [%]: 0
//
MOLECULE: c1ccc(CC2CCNC3(CCN(c4ncnc5[nH]cnc45)CC3)C2)cc1 (racemic)
inhibition [%]: 16
//
MOLECULE: O=S(=O)(c1cccc2cnccc12)N1CCC2(CCCN2)CC1
inhibition [%]: 9
//
MOLECULE: COC(=O)C1CCC2(CCN(c3ncnc4[nH]cnc34)CC2)NC1 (racemic)
inhibition [%]: 18
//
MOLECULE: OCC1CCC2(CCN(c3ncnc4[nH]cnc34)CC2)NC1 (racemic)
inhibition [%]: 15
//
MOLECULE: O=S(=O)(c1cccc2cnccc12)N1CCC2(CCNC2)CC1
inhibition [%]: 0

Asked: Look up inhibition: OC1CCC2(CCN(c3ncnc4[nH]cnc34)CC2)NC1 (racemic)
Given back: 25

Asked: Look up inhibition: CNC(=O)C1CCC2(CCN(c3ncnc4[nH]cnc34)CC2)NC1 (racemic)
Given back: 23

Asked: Look up inhibition: c1ccc(C2CCNC3(CCN(c4ncnc5[nH]cnc45)CC3)C2)cc1 (racemic)
Given back: 39

Asked: Look up inhibition: `NC1(Cc2ccccc2)CCN(c2ncnc3[nH]cnc23)CC1`
Given back: 45

Asked: Look up inhibition: O=S(=O)(c1cccc2cnccc12)N1CCCC2(CCCNC2)C1 (configuration not stated)
Given back: 7

Asked: Look up inhibition: `c1nc(N2CCCC3(CCNCC3)C2)c2nc[nH]c2n1`
Given back: 32

Asked: Look up inhibition: `NC1(Cc2ccccc2)CCN(S(=O)(=O)c2cccc3cnccc23)CC1`
Given back: 7

Asked: Look up inhibition: `c1nc(N2CCC3(CCCNC3)CC2)c2nc[nH]c2n1`
Given back: 82

Asked: Look up inhibition: O=C(O)C1CCC2(CCN(c3ncnc4[nH]cnc34)CC2)NC1 (racemic)
Given back: 2

Asked: Look up inhibition: O=S(=O)(c1cccc2cnccc12)N1CCC2(CC1)CC(O)CCN2 (racemic)
Given back: 12

Asked: Look up inhibition: c1ccc(CC2CCC3(CCN(c4ncnc5[nH]cnc45)CC3)NC2)cc1 (racemic)
Given back: 31

Asked: Look up inhibition: c1nc(N2CCCC3(CCCNC3)C2)c2nc[nH]c2n1 (configuration not stated)
Given back: 5

----------
ASSAY TARGET: Tyrosine-protein kinase Lyn (Homo sapiens)
Sequence (P07948 2-512 limits assumed): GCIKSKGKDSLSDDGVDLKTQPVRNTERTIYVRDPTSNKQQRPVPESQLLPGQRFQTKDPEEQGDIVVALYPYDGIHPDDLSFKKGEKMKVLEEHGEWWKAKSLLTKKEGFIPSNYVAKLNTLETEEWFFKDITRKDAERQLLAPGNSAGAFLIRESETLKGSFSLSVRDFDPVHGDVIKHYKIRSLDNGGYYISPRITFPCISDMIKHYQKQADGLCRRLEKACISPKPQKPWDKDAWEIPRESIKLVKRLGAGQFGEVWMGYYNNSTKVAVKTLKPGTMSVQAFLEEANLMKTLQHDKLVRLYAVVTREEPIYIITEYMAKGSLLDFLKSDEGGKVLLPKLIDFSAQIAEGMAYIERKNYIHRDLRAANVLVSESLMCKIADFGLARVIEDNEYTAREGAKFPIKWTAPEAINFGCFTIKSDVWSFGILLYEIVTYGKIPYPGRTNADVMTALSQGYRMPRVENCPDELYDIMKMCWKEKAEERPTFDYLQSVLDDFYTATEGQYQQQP
MEASUREMENT DESCRIPTION: Inhibition of LYN (unknown origin) at 30 uM by microfluidic mobility shift assay relative to control
Listing: inhibition of selected compounds
State the answer as a number, implicitly in %.

Below, 5 compounds whose answers are already recorded.
COMPOUND: O=S(=O)(c1cccc2cnccc12)N1CCCC2(CCNCC2)C1
MEASURE UNIT: %
inhibition: 9
//
COMPOUND: O=S(=O)(c1cccc2cnccc12)N1CCC2(CC1)CC(O)CCN2 (racemic)
MEASURE UNIT: %
inhibition: 25
//
COMPOUND: O=S(=O)(c1cccc2cnccc12)N1CCCC12CCNCC2
MEASURE UNIT: %
inhibition: 3
//
COMPOUND: c1nc(N2CCC3(CCCCC3)CC2)c2nc[nH]c2n1
MEASURE UNIT: %
inhibition: 21
//
COMPOUND: O=S(=O)(c1cccc2cnccc12)N1CCC2(CCCCN2)CC1
MEASURE UNIT: %
inhibition: 18

Asked: Item: `O=S(=O)(c1cccc2cnccc12)N1CCC2(CCCNC2)CC1` Test system: Tyrosine-protein kinase Lyn (Homo sapiens) Read-out: inhibition Value: ?
Given back: 5

Asked: Item: O=C(O)C1CCC2(CCN(c3ncnc4[nH]cnc34)CC2)NC1 (racemic) Test system: Tyrosine-protein kinase Lyn (Homo sapiens) Read-out: inhibition Value: ?
Given back: 16

Asked: Item: `NC1(Cc2ccccc2)CCN(S(=O)(=O)c2cccc3cnccc23)CC1` Test system: Tyrosine-protein kinase Lyn (Homo sapiens) Read-out: inhibition Value: ?
Given back: 10

Asked: Item: `c1nc(N2CCC3(CCCCO3)CC2)c2nc[nH]c2n1` Test system: Tyrosine-protein kinase Lyn (Homo sapiens) Read-out: inhibition Value: ?
Given back: 35

Asked: Item: c1ccc(CC2CCNC3(CCN(c4ncnc5[nH]cnc45)CC3)C2)cc1 (racemic) Test system: Tyrosine-protein kinase Lyn (Homo sapiens) Read-out: inhibition Value: ?
Given back: 53

Asked: Item: `O=S(=O)(c1cccc2cnccc12)N1CCC2(CCNC2)CC1` Test system: Tyrosine-protein kinase Lyn (Homo sapiens) Read-out: inhibition Value: ?
Given back: 3

Asked: Item: c1ccc(CC2CCC3(CCN(c4ncnc5[nH]cnc45)CC3)NC2)cc1 (racemic) Test system: Tyrosine-protein kinase Lyn (Homo sapiens) Read-out: inhibition Value: ?
Given back: 35

Asked: Item: `c1nc(N2CCC3(CCCNC3)CC2)c2nc[nH]c2n1` Test system: Tyrosine-protein kinase Lyn (Homo sapiens) Read-out: inhibition Value: ?
Given back: 70

Asked: Item: `c1nc(N2CCC3(CCCOC3)CC2)c2nc[nH]c2n1` Test system: Tyrosine-protein kinase Lyn (Homo sapiens) Read-out: inhibition Value: ?
Given back: 34

Asked: Item: c1ccc(C2CCNC3(CCN(c4ncnc5[nH]cnc45)CC3)C2)cc1 (racemic) Test system: Tyrosine-protein kinase Lyn (Homo sapiens) Read-out: inhibition Value: ?
Given back: 75

Asked: Item: `c1nc(N2CCCC23CCNCC3)c2nc[nH]c2n1` Test system: Tyrosine-protein kinase Lyn (Homo sapiens) Read-out: inhibition Value: ?
Given back: 5

Asked: Item: `c1nc(N2CCC3(CCCN3)CC2)c2nc[nH]c2n1` Test system: Tyrosine-protein kinase Lyn (Homo sapiens) Read-out: inhibition Value: ?
Given back: 20

Asked: Item: COC(=O)C1CCC2(CCN(c3ncnc4[nH]cnc34)CC2)NC1 (racemic) Test system: Tyrosine-protein kinase Lyn (Homo sapiens) Read-out: inhibition Value: ?
Given back: 16

Asked: Item: O=C(C1CCC2(CCN(c3ncnc4[nH]cnc34)CC2)NC1)N1CCOCC1 (racemic) Test system: Tyrosine-protein kinase Lyn (Homo sapiens) Read-out: inhibition Value: ?
Given back: 17

Asked: Item: OCC1CCC2(CCN(c3ncnc4[nH]cnc34)CC2)NC1 (racemic) Test system: Tyrosine-protein kinase Lyn (Homo sapiens) Read-out: inhibition Value: ?
Given back: 16

Asked: Item: `c1nc(N2CCC3(CCNC3)CC2)c2nc[nH]c2n1` Test system: Tyrosine-protein kinase Lyn (Homo sapiens) Read-out: inhibition Value: ?
Given back: 65

Asked: Item: OC1CCC2(CCN(c3ncnc4[nH]cnc34)CC2)NC1 (racemic) Test system: Tyrosine-protein kinase Lyn (Homo sapiens) Read-out: inhibition Value: ?
Given back: 26

Asked: Item: O=S(=O)(c1cccc2cnccc12)N1CCCC2(CCCNC2)C1 (centres undefined) Test system: Tyrosine-protein kinase Lyn (Homo sapiens) Read-out: inhibition Value: ?
Given back: 19

Asked: Item: `O=S(=O)(NCCNC/C=C/c1ccc(Br)cc1)c1cccc2cnccc12` Test system: Tyrosine-protein kinase Lyn (Homo sapiens) Read-out: inhibition Value: ?
Given back: 50

Asked: Item: CN(C)C(=O)C1CCC2(CCN(c3ncnc4[nH]cnc34)CC2)NC1 (racemic) Test system: Tyrosine-protein kinase Lyn (Homo sapiens) Read-out: inhibition Value: ?
Given back: 14

Asked: Item: O=S(=O)(c1cccc2cnccc12)N1CCC2(CCC(O)CN2)CC1 (racemic) Test system: Tyrosine-protein kinase Lyn (Homo sapiens) Read-out: inhibition Value: ?
Given back: 23

Asked: Item: CNC(=O)C1CCC2(CCN(c3ncnc4[nH]cnc34)CC2)NC1 (racemic) Test system: Tyrosine-protein kinase Lyn (Homo sapiens) Read-out: inhibition Value: ?
Given back: 26
